Consider the following variants and their measured reverse-splicing fitness readings.
B1: Azoarcus group I ribozyme (parent)
chain: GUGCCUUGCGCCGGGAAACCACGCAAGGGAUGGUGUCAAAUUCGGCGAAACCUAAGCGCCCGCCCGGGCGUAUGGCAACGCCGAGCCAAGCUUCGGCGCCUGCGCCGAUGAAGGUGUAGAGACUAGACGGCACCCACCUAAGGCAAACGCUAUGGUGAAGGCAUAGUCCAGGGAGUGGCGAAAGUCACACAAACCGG

- Variants of: B1
- ASSAY COMMENT: reverse-splicing fitness (ratio to wild type); higher = more active; in vitro selection; Mg2+ level not given
ENDPOINT: reverse-splicing fitness

MUTANT LABEL: C82A A120C C150G U176C
ASSAY VALUE: 0.0106
--
MUTANT LABEL: C82G A111U A120U C169G U176G
ASSAY VALUE: 0.00175
--
MUTANT LABEL: A120U A145G C150U C169A U176G
ASSAY VALUE: 0.00258
--
MUTANT LABEL: A120U C169U U176G
ASSAY VALUE: 0.0138
--
MUTANT LABEL: A111U A120U A145U U176C
ASSAY VALUE: 0.281
--
MUTANT LABEL: C82G A111G A120C C150U C169G U176G
ASSAY VALUE: 0.00572
--
MUTANT LABEL: C82G A145U C150G U176G
ASSAY VALUE: 0.0103
--
MUTANT LABEL: C82G A111C A120C A145G C169U U176A
ASSAY VALUE: 0.0139
--
MUTANT LABEL: C82U A111G A120C A145U C169G U176A
ASSAY VALUE: 0.00935
--
MUTANT LABEL: A145G C150U C169A U176G
ASSAY VALUE: 0.00628
--
MUTANT LABEL: C82U A145C
ASSAY VALUE: 0.598
--
MUTANT LABEL: C82U A111U A120C A145G U176A
ASSAY VALUE: 0.0152
--
MUTANT LABEL: A111G A120C A145U C150G C169U
ASSAY VALUE: 0.0352
--
MUTANT LABEL: C82G A111G A120C C169A U176C
ASSAY VALUE: 0.0162
--
MUTANT LABEL: C82U A111C C150G U176G
ASSAY VALUE: 0.00363
--
MUTANT LABEL: C82U A111G A120G C150A C169A U176A
ASSAY VALUE: 0.0173
--
MUTANT LABEL: C82A A111G A120C A145G C150U C169A U176G
ASSAY VALUE: 0.00816
